# System: human lung cancer strain NCI-H441;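 note: cell proliferation inhibition after four days measured by CellTiter-Glo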
Overview of reported IC50 across a group of molecules:
RECORDED METRIC: IC50

1) CCO[C@@H]1C[C@H]2C(=O)NC3(CCC3)C(=O)N(C)[C@@H](C3CCCC3)C(=O)N(C)[C@H](C(=O)N3CCCCC3)CC(=O)N(C)[C@@H](CC(C)C)C(=O)N[C@@H]([C@@H](C)CC)C(=O)N(C)CC(=O)N(C)[C@H]3C/C=C\CCN(C3=O)[C@@H](Cc3ccc(C(F)(F)F)cc3)C(=O)N(C)CC(=O)N[C@@H](CCc3cc(F)c(C(F)(F)F)c(F)c3)C(=O)N2C1 15.4 nM
2) CCOC[C@H]1C(=O)N[C@@H]([C@@H](C)CC)C(=O)N(C2CC2)CC(=O)N(C)[C@H]2C/C=C\CCN(C2=O)[C@@H](CC2CCCCC2)C(=O)N(C)CC(=O)N[C@@H](CCc2ccc(C(F)(F)F)c(OC)c2)C(=O)N2C[C@@H](C)C[C@H]2C(=O)N(C)C2(CCC2)C(=O)N(C)[C@@H](C2CCCC2)C(=O)N(C)[C@H](C(=O)N(C)C)CC(=O)N1C 6.5 nM
3) CCO[C@@H]1C[C@H]2C(=O)NC3(CCC3)C(=O)N(C)[C@@H](C3CCCC3)C(=O)N(C)[C@H](C(=O)N(C)C)CC(=O)N(C)[C@@H](CC(C)C)C(=O)N[C@@H]([C@@H](C)CC)C(=O)N(C)CC(=O)N(C)[C@H]3C/C=C\CCN(C3=O)[C@@H](Cc3ccc(C(F)(F)F)cc3)C(=O)N(C)CC(=O)N[C@@H](CCc3ccc4sccc4c3)C(=O)N2C1 54.3 nM
